FYI, the data here is from the supplement of paper PMC10567573.

B1: GLTSCR2 (parent)
chain: YNPSFEDHQTLLSAAHEVELQRQK

variants of: B1; assay: protein stability index of a GFP-peptide fusion (GPS, HEK-293T) (PSI 1-6); higher = more stable; conditions: c terminus: a fixed tail appended;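 further: lentivirally expressed fusions sorted by FACS into six bins by GFP to DsRed ratio, PSI derived from sequencing read proportions per bin multiplied by bin number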
assay_endpoint: protein stability index
Answers are plain numbers.

Example entries begin here.
DNPSFEDHQTLLSAAHEVELQRQK [Y1D] = 5.25
YNPSFEDHQTLLSAAHEVKLQRQK [E19K] = 3.25
YNHSFEDHQTLLSAAHEVELQRQK [P3H] = 4.67

For each of the variants below, state protein stability index.
1. YNPSFEDHQTLLSAAHEVELQRQH [K24H]
2. YNPSFEDHQTLFSAAHEVELQRQK [L12F]
3. YNPSFEDHQKLLSAAHEVELQRQK [T10K]
4. YNPSFEDHQTLLSAAHEVELQRDK [Q23D]
5. YNPSFEDHQTLLSAAHEVEIQRQK [L20I]
6. YNPSFEDHQTLLSYAHEVELQRQK [A14Y]

A.
1. 3.23
2. 2.35
3. 2.35
4. 4.23
5. 3.71
6. 2.65

For each of the variants below, state protein stability index.
1. YNPSFEDHQCLLSAAHEVELQRQK [T10C]
2. YNPSFEDHQILLSAAHEVELQRQK [T10I]
3. YNPSFEDHQTLLSAAHEVHLQRQK [E19H]
4. YNPSFEAHQTLLSAAHEVELQRQK [D7A]
5. SNPSFEDHQTLLSAAHEVELQRQK [Y1S]
6. YNPSFEDHQLLLSAAHEVELQRQK [T10L]

A.
[3.19, 3.05, 3.39, 3.72, 5.38, 2.71]
